- target_entity: EPHB2 (UniProt P29323)
- Sequence (P29323 whole entry, looked up): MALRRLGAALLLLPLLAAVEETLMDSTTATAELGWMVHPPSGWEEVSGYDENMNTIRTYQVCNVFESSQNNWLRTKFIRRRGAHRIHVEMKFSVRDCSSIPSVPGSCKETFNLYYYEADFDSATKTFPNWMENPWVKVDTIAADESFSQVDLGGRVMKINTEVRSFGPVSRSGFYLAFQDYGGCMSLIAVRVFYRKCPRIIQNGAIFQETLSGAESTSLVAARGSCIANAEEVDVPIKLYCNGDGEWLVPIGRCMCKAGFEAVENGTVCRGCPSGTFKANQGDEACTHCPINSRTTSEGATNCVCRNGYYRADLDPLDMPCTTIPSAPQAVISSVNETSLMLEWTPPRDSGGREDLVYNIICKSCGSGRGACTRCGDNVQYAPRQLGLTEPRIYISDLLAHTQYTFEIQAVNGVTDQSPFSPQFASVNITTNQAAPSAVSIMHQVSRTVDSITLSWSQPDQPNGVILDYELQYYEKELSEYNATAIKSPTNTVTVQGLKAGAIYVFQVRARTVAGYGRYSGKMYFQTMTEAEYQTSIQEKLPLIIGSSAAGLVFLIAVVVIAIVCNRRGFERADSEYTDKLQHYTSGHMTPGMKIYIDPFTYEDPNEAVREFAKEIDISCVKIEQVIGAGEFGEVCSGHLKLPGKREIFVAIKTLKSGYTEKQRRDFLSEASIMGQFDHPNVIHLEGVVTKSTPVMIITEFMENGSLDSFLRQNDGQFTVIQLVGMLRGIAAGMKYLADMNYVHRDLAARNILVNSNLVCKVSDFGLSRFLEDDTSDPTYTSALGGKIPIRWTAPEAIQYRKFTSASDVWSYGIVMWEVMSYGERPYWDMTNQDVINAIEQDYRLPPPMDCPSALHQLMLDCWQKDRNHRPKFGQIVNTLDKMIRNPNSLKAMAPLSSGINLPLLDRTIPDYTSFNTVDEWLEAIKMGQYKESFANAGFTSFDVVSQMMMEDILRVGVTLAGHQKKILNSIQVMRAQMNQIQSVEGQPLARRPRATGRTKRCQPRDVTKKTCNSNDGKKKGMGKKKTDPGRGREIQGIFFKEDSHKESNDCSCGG
- test_details: phosphorylation enrichment, bacterial display (enrichment ratio); higher = better substrate or ligand; peptides without Tyr show the background;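 note: 11-residue human phosphosite peptides and single-mutation variants displayed on the E. coli surface, counted by deep sequencing, each peptide's frequency after selection divided by its frequency in the unselected input library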;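 note: frequency after pTyr selection over input frequency; kinase dosed for 20-30% of maximal phosphorylation in three min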
parameter: phosphorylation enrichment
Numbers only.

Would you please look over these solved cases?
- sequence_record: "GHEFIYVDPMQ [PDGFRA_Y574_YF]"
  phosphorylation enrichment: 6.63
- sequence_record: "SSEYHCVGGFY [CTSC_Y347_Y347C]"
  phosphorylation enrichment: 4.66
- sequence_record: "TVNIRYLLFPS [SERAC1_Y548_S543T]"
  phosphorylation enrichment: 0.725

List the reported phosphorylation enrichment of each sequence below.
1. RGFRQYAFDGK [HLA-A_Y140_D140Y_YF]
2. EWQQIYTYDSG [JUP_Y20_T19I]
3. LADKPYTFEDF [FXN_Y118_YF]
4. PLDGEHFTLQI [TP53_Y327_Y327H]

1: 0.51; 2: 0.971; 3: 1.86; 4: 0.632

List the reported phosphorylation enrichment of each sequence below.
1. YARECYSALPQ [SARS2_Y52_G51C]
2. LIFTNYEVGKD [GSTP1_Y112_A114V_YF]
3. NTSKMYIPHTD [EXPH5_Y782_D777N]
4. EHTILYSNNST [KANSL1_Y223_T221I]
5. MFNPYYGLFEY [NEDD4L_Y680]
6. TEAEPYFRSLR [NPHS1_Y1138_YF]

[0.868, 1.78, 0.423, 0.454, 9.35, 0.519]

###

- target_entity: Fes (UniProt P07332)
- Sequence (P07332 whole entry, looked up): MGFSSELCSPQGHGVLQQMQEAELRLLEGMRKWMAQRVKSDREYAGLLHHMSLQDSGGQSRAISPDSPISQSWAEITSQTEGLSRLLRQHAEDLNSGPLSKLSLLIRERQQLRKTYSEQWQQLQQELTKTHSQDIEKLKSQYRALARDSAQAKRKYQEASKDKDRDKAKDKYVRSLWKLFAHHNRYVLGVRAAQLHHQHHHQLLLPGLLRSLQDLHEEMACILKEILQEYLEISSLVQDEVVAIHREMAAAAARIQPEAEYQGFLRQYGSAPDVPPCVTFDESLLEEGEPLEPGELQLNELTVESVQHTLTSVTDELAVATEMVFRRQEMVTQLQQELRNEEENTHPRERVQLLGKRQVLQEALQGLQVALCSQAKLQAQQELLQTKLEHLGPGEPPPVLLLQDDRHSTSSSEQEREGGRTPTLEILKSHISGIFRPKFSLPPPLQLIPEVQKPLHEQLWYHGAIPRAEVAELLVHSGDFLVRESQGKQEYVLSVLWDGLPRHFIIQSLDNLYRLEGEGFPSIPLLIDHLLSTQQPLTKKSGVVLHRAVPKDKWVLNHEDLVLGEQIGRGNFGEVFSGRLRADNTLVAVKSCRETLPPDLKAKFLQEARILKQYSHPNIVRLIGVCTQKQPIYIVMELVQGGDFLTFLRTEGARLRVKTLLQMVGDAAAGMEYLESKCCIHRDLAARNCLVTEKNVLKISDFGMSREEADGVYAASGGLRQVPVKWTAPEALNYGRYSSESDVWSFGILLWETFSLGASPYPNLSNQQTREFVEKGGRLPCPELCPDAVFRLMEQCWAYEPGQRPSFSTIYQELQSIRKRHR
- test_details: phosphorylation enrichment, bacterial display (enrichment ratio); higher = better substrate or ligand; peptides without Tyr show the background
Where phosphorylation enrichment equals or exceeds 1, the correct label is 1.0; where it does not, the label is 0.0.

- sequence_record: "PINLYYLMDLS [ITGB2_Y131_D128N]"
  label_value: 1.0
- sequence_record: "PAEPRYRARQR [KCNJ11_Y26]"
  label_value: 0.0
- sequence_record: "EGGFAYVPLKD [PRIM2_Y208_D204G]"
  label_value: 1.0
- sequence_record: "GRQGIYKENER [GPR143_Y231_T232K]"
  label_value: 0.0
- sequence_record: "LLASRYDSPIN [ABLIM1_Y638]"
  label_value: 1.0
- sequence_record: "GFILMYDITNE [RAB3C_Y110]"
  label_value: 1.0
- sequence_record: "VNRSGYTLIRK [ATP6V0A2_Y688]"
  label_value: 0.0
- sequence_record: "CATIHYNYMCN [TP53_Y234_T230A]"
  label_value: 0.0
- sequence_record: "FFSSEYHFVGG [CTSC_Y345_YF]"
  label_value: 0.0
- sequence_record: "KELALYDENWF [RPS19_Y48_P47L]"
  label_value: 1.0

Say whether PVQAAYQQVVA [HBB_Y131_K133Q] shows phosphorylation enrichment of 1 or more.
0.0

Say whether QYQEKYKQMEQ [HCN4_Y531_V534M] shows phosphorylation enrichment of 1 or more.
1.0

Say whether KPLMPYMRFSR [SMARCE1_Y73_YF] shows phosphorylation enrichment of 1 or more.
0.0

Say whether RRYLYYYSYLL [PTEN_Y177_V175L] shows phosphorylation enrichment of 1 or more.
1.0
